system: 596521-263-R-J1-PDC complex spheroids, viability % of control; test: Anticancer human tumor 596521-263-R-J1-PDC patient-derived soft tissue sarcoma cell line growth inhibition [GQUAD]; settings: second compound 0.0316 µM; first compound 0.0316 µM; stronger effect = lower value;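 note: spheroids exposed to drugs for 7 days before viability reading; 100% = DMSO vehicle control viability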
reported metric: viability, T/C (%)
Value expressed in %; do not type the unit.

stdin: Recall the recorded viability, T/C for Cn1ncnc1[C@H]1c2n[nH]c(=O)c3cc(F)cc(c23)N[C@@H]1c1ccc(F)cc1 + Cc1[nH]c2ccc(F)cc2c1-c1nc2c3cccnc3c3ncccc3c2[nH]1 with 596521-263-R-J1-PDC complex spheroids, viability % of control and state it.
stdout: 86.6

stdin: Consider next the compound O=C(NO)c1cnc(N2CCN(S(=O)(=O)c3ccc4ccccc4c3)CC2)nc1 + CN(C)c1ccc(Nc2c3ccc(NC(=O)CCN4CCCC4)cc3nc3cc(NC(=O)CCN4CCCC4)ccc23)cc1 in the same way.
stdout: 77.3

stdin: Consider next the compound C=CCn1c(=O)c2cnc(Nc3ccc(N4CCN(C)CC4)cc3)nc2n1-c1cccc(C(C)(C)O)n1 + CN(C)c1ccc(Nc2c3ccc(NC(=O)CCN4CCCC4)cc3nc3cc(NC(=O)CCN4CCCC4)ccc23)cc1 in the same way.
stdout: 90.4

stdin: Consider next the compound CC1COCCN1c1cc(C2(O)CC3CCC(C2)O3)c2cnn(-c3ccn[nH]3)c2n1 (stereo unspecified) + Cc1cnc(CNC(=O)c2c(=O)c3ccc(N4CCCN(C)CC4)nc3n3c2sc2ccccc23)cn1 in the same way.
stdout: 65.1

stdin: Consider next the compound CC1COCCN1c1cc(C2(O)CC3CCC(C2)O3)c2cnn(-c3ccn[nH]3)c2n1 (stereo unspecified) + Cc1[nH]c2ccc(F)cc2c1-c1nc2c3cccnc3c3ncccc3c2[nH]1 in the same way.
stdout: 68.8

stdin: Consider next the compound O=C(NO)c1cnc(N2CCN(S(=O)(=O)c3ccc4ccccc4c3)CC2)nc1 + Cc1[nH]c2ccc(F)cc2c1-c1nc2c3cccnc3c3ncccc3c2[nH]1 in the same way.
stdout: 37.6

stdin: Consider next the compound CC(C)n1c(=O)n(C)c2cnc3cc(F)c(-c4ccc(OCCCN5CCCCC5)nc4)cc3c21 + Cc1[nH]c2ccc(F)cc2c1-c1nc2c3cccnc3c3ncccc3c2[nH]1 in the same way.
stdout: 100

stdin: Consider next the compound CC(C)n1c(=O)n(C)c2cnc3cc(F)c(-c4ccc(OCCCN5CCCCC5)nc4)cc3c21 + CN(C)c1ccc(Nc2c3ccc(NC(=O)CCN4CCCC4)cc3nc3cc(NC(=O)CCN4CCCC4)ccc23)cc1 in the same way.
stdout: 104

stdin: Consider next the compound CCCS(=O)(=O)Nc1ccc(F)c(C(=O)c2c[nH]c3ncc(-c4ccc(Cl)cc4)cc23)c1F + CN(C)c1ccc(Nc2c3ccc(NC(=O)CCN4CCCC4)cc3nc3cc(NC(=O)CCN4CCCC4)ccc23)cc1 in the same way.
stdout: 94.7

stdin: Consider next the compound COc1cc(C2c3cc4c(cc3C(OC3OC5COC(C)OC5C(O)C3O)C3COC(=O)C23)OCO4)cc(OC)c1O (stereo unspecified) + Cc1[nH]c2ccc(F)cc2c1-c1nc2c3cccnc3c3ncccc3c2[nH]1 in the same way.
stdout: 107

stdin: Consider next the compound C#Cc1c(F)ccc2cc(O)cc(-c3ncc4c(N5CC6CCC(C5)N6)nc(OCC56CCCN5CC(F)C6)nc4c3F)c12 (stereo unspecified) + Cc1[nH]c2ccc(F)cc2c1-c1nc2c3cccnc3c3ncccc3c2[nH]1 in the same way.
stdout: 111
